# protocol notes: Plasma protein binding in rat at 2 uM by LC-MS/MS analysis
# Assay type: ADME, cell-free
# cond: read-out: PPB

smiles notation	fraction unbound at 2 µM
C#Cc1c(F)ccc2cc(O)cc(-c3ncc4c(N5CC6CCC(C5)N6)nc(OCC5(CN6CCC7(CC6)CC(N6CCC(c8cc9c(cc8F)c(N8CCC(=O)NC8=O)nn9C)CC6)C7)CC5)nc4c3F)c12	< 0.05

----------
# protocol notes: Drug concentration in male Balb/c nude mouse plasma xenografted with human PK-59 cells at 10 mg/kg, iv administered as single dose measured after 168 hrs by LC-MS/MS analysis
# Assay type: ADME, organism-based

smiles notation	measurement units	concentration at 168 h
C#Cc1c(F)ccc2cc(O)cc(-c3ncc4c(N5CC6CCC(C5)N6)nc(OCC5(CN6CCC7(CC6)CC(N6CCC(c8cc9c(cc8F)c(N8CCC(=O)NC8=O)nn9C)CC6)C7)CC5)nc4c3F)c12	ng/mL	5.3

----------
# protocol notes: Plasma protein binding in dog at 2 uM by LC-MS/MS analysis
# Assay type: ADME, cell-free, Canis lupus familiaris
# cond: read-out: PPB
value kind: fraction unbound at 2 µM

smiles notation	readout value
C#Cc1c(F)ccc2cc(O)cc(-c3ncc4c(N5CC6CCC(C5)N6)nc(OCC5(CN6CCC7(CC6)CC(N6CCC(c8cc9c(cc8F)c(N8CCC(=O)NC8=O)nn9C)CC6)C7)CC5)nc4c3F)c12	< 0.05

----------
# protocol notes: AUC (0 to t) in male ICR mouse at 1 mg/kg, iv measured up to 24 hrs by LC-MS/MS analysis
# Assay type: ADME, organism-based
# cond: in vivo

smiles notation	AUC(0-t) at 24 h [µM·h]
C#Cc1c(F)ccc2cc(O)cc(-c3ncc4c(N5CC6CCC(C5)N6)nc(OCC5(CN6CCC7(CC6)CC(N6CCC(c8cc9c(cc8F)c(N8CCC(=O)NC8=O)nn9C)CC6)C7)CC5)nc4c3F)c12	0.397

----------
# protocol notes: Stability in human plasma assessed as half life at 1 uM measured up to 120 mins by LC-MS/MS analysis
# Type: ADME, cell-free
value kind: half-life at 1 µM

smiles notation	readout value
C#Cc1c(F)ccc2cc(O)cc(-c3ncc4c(N5CC6CCC(C5)N6)nc(OCC5(CN6CCC7(CC6)CC(N6CCC(c8cc9c(cc8F)c(N8CCC(=O)NC8=O)nn9C)CC6)C7)CC5)nc4c3F)c12	165 h

----------
# protocol notes: Clearance in male Beagle dog at 1 mg/kg, iv measured up to 24 hrs by LC-MS/MS analysis
# Type: ADME, organism-based, Canis lupus familiaris
# cond: in vivo
value kind: clearance (mL/min/kg)

smiles notation	readout value
C#Cc1c(F)ccc2cc(O)cc(-c3ncc4c(N5CC6CCC(C5)N6)nc(OCC5(CN6CCC7(CC6)CC(N6CCC(c8cc9c(cc8F)c(N8CCC(=O)NC8=O)nn9C)CC6)C7)CC5)nc4c3F)c12	33

----------
# System: Protein cereblon/GTPase KRas (Homo sapiens), P01116+Q96SW2 [G12D]
# Sequence (P01116 whole entry G12D): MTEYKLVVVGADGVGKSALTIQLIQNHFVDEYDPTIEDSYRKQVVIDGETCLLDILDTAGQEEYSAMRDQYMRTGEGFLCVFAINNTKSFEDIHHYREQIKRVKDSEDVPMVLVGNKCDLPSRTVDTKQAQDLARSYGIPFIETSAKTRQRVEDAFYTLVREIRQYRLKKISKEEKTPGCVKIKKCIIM
# Sequence (Q96SW2 whole entry partner): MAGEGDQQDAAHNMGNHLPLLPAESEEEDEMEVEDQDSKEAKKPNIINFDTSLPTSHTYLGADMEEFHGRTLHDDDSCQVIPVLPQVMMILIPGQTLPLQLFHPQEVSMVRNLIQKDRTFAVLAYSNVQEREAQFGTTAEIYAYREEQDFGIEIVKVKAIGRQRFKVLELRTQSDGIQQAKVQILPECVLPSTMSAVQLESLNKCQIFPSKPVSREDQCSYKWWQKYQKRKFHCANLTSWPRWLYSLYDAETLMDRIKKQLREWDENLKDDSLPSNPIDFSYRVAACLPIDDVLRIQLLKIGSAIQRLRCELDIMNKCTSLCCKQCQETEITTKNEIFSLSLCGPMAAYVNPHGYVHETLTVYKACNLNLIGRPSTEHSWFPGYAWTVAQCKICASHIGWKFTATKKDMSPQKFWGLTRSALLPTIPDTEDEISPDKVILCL
# protocol notes: PROTAC activity at CRBN/KRAS G12D mutant in human ASPC1 cells assessed as induction of KRAS G12D mutant degradation at 100 nM measured after 24 hrs by immunoblot analysis relative to control
# Format: cell-based
value kind: Activity (%)

compound	measured on	value kind	readout value
C#Cc1c(F)ccc2cc(O)cc(-c3ncc4c(N5CC6CCC(C5)N6)nc(OCCCN5CCN(CC(=O)N6CCN(c7ccc8c(c7)C(=O)N(C7CCC(=O)NC7=O)C8=O)CC6)CC5)nc4c3F)c12 (stereo unspecified)	Protein cereblon/GTPase KRas (Homo sapiens), P01116+Q96SW2 [G12D]	Activity	-1
C#Cc1c(F)ccc2cc(O)cc(-c3ncc4c(N5CC6CCC(C5)N6)nc(OCC5(CN6CCN(c7ccc8c(c7)C(=O)N(C7CCC(=O)NC7=O)C8=O)CC6)CC5)nc4c3F)c12 (stereo unspecified)	Protein cereblon/GTPase KRas (Homo sapiens), P01116+Q96SW2 [G12D]	Activity	58
C#Cc1c(F)ccc2cc(O)cc(-c3ncc4c(N5CC6CCC(C5)N6)nc(OCCCN5CCN(CC(=O)N6CCN(c7cccc8c7C(=O)N(C7CCC(=O)NC7=O)C8=O)CC6)CC5)nc4c3F)c12 (stereo unspecified)	Protein cereblon/GTPase KRas (Homo sapiens), P01116+Q96SW2 [G12D]	Activity	0
C#Cc1c(F)ccc2cc(O)cc(-c3ncc4c(N5CC6CCC(C5)N6)nc(OCCCN5CCN(C(=O)CN6CCN(c7ccc8c(c7)C(=O)N(C7CCC(=O)NC7=O)C8=O)CC6)CC5)nc4c3F)c12 (stereo unspecified)	Protein cereblon/GTPase KRas (Homo sapiens), P01116+Q96SW2 [G12D]	Activity	10
C#Cc1c(F)ccc2cc(O)cc(-c3ncc4c(N5CC6CCC(C5)N6)nc(OCCCN5CCN(C(=O)CN6CCN(c7cccc8c7C(=O)N(C7CCC(=O)NC7=O)C8=O)CC6)CC5)nc4c3F)c12 (stereo unspecified)	Protein cereblon/GTPase KRas (Homo sapiens), P01116+Q96SW2 [G12D]	Activity	8
C#Cc1c(F)ccc2cc(O)cc(-c3ncc4c(N5CC6CCC(C5)N6)nc(OCC5(CN6CCN(C(=O)CN7CCN(c8ccc9c(c8)C(=O)N(C8CCC(=O)NC8=O)C9=O)CC7)CC6)CC5)nc4c3F)c12 (stereo unspecified)	Protein cereblon/GTPase KRas (Homo sapiens), P01116+Q96SW2 [G12D]	Activity	40
